Target: DNA topoisomerase 2-alpha (Homo sapiens)
Experiment: Inhibition of recombinant human DNA topoisomerase-2alpha using supercoiled pBR322 plasmid DNA as substrate at 100 uM after 30 mins by agarose gel electrophoresis relative to control
reportedMetric: inhibition (%)

>>> measurement("Oc1ccc(-c2cc(-c3ccsc3)cc(-c3ccc(O)cc3)n2)cc1")
81.2
>>> measurement("Oc1ccccc1-c1cc(-c2ccccn2)cc(-c2ccccc2O)n1")
65.5
>>> measurement("Oc1ccc(-c2cc(-c3ccco3)cc(-c3ccccc3O)n2)cc1")
84.8
>>> measurement("Oc1cccc(-c2cc(-c3ccco3)cc(-c3cccc(O)c3)n2)c1")
88.2

---

Target: DNA topoisomerase 2-alpha (Homo sapiens)
Experiment: Inhibition of recombinant human DNA topoisomerase-2alpha using supercoiled pBR322 plasmid DNA as substrate at 100 uM after 30 mins by agarose gel electrophoresis relative to control
reportedMetric: inhibition (%)

>>> measurement("Oc1ccc(-c2cc(-c3ccsc3)cc(-c3ccccc3O)n2)cc1")
80.6

I = Oc1cccc(-c2cc(-c3cccs3)cc(-c3cccc(O)c3)n2)c1
II = Oc1cccc(-c2cc(-c3cccnc3)cc(-c3cccc(O)c3)n2)c1
q: Which record shows the lower inhibition: the first, I , or the second, II ? Answer with the label corresponding to your selection.
a: II
(II: 11.2%, I: 78.3%)

---

Target: DNA topoisomerase 1 (Homo sapiens)
Sequence (whole entry): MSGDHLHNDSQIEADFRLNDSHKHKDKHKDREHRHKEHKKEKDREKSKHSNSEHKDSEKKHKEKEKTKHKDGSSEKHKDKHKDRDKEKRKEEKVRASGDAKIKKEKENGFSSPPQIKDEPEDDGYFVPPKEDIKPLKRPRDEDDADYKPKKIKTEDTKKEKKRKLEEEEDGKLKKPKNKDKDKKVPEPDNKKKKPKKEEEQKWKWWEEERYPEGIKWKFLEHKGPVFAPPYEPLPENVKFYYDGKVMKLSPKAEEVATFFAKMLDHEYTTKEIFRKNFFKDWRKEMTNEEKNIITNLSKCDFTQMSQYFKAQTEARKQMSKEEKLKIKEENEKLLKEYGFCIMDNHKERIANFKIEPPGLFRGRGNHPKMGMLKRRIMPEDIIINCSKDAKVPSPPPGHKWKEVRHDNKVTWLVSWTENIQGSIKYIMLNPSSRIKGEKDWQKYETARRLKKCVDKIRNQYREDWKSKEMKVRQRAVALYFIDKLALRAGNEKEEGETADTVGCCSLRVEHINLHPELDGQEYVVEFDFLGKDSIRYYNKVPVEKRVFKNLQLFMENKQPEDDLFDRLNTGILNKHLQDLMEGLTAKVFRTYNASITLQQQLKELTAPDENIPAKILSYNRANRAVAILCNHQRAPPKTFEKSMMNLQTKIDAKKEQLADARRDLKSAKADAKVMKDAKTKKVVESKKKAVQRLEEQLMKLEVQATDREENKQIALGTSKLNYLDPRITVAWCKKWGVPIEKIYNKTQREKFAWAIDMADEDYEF
Experiment: Inhibition of recombinant human DNA topoisomerase-1 assessed as relaxation of supercoiled DNA pBR322 at 100 uM after 30 mins by agarose gel electrophoresis relative to control
reportedMetric: inhibition (%)

Solved entries:
>>> measurement("Oc1cccc(-c2cc(-c3cccnc3)cc(-c3ccccc3O)n2)c1")
1.9
>>> measurement("Oc1ccc(-c2cc(-c3ccccn3)cc(-c3cccc(O)c3)n2)cc1")
2.4
>>> measurement("Oc1ccc(-c2cc(-c3ccco3)cc(-c3cccc(O)c3)n2)cc1")
100

P = Oc1ccccc1-c1cc(-c2ccsc2)cc(-c2ccccc2O)n1
Q = Oc1ccc(-c2cc(-c3ccoc3)cc(-c3cccc(O)c3)n2)cc1
q: For the two items P and Q , which reports the higher inhibition value? Response format: the label of the selected entry.
a: Q

---

Biological target: UniProt:P11388
Sequence (P11388 whole entry): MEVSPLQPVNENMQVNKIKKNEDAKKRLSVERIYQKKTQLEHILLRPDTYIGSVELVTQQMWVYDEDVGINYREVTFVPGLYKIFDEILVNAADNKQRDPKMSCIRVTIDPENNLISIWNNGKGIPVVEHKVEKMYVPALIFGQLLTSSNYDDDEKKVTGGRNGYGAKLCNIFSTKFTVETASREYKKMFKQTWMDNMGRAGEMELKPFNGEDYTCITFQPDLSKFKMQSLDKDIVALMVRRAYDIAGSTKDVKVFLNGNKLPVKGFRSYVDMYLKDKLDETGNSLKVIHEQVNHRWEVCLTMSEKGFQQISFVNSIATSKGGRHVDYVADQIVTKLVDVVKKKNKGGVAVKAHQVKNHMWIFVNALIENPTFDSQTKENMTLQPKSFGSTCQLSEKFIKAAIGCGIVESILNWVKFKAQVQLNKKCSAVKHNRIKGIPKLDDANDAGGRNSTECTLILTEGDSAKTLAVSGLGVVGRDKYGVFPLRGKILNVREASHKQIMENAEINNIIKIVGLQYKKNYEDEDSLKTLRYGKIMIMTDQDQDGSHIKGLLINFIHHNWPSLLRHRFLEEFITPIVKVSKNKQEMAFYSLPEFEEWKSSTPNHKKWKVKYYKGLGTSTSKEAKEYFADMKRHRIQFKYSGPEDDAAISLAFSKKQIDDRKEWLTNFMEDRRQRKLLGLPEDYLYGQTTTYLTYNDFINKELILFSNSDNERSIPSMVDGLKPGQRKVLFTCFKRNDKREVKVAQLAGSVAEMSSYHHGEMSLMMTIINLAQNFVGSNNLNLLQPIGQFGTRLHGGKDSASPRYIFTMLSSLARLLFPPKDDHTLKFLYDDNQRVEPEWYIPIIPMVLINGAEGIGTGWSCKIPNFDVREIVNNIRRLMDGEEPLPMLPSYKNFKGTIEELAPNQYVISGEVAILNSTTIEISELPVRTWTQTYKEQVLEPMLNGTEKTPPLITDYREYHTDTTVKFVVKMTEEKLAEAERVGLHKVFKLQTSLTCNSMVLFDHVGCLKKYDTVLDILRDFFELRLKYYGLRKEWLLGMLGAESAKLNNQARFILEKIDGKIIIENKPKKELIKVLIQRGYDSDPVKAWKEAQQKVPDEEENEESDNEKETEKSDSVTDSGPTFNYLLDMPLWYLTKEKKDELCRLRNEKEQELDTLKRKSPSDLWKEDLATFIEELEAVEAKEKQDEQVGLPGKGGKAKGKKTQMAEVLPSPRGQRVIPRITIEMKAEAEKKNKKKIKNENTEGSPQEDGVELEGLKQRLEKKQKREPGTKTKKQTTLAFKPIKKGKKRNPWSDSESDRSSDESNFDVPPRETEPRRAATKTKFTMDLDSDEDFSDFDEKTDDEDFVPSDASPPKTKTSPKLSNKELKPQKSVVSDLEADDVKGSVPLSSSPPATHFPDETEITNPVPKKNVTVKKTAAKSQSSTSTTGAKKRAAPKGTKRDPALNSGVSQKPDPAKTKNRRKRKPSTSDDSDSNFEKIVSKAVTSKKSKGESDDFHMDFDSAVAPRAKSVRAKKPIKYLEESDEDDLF
Assay: Inhibition of recombinant human DNA topoisomerase-2alpha using supercoiled pBR322 plasmid DNA as substrate at 20 uM after 30 mins by agarose gel electrophoresis relative to control
reportedMetric: inhibition (%)

Sample answers from the record:
>>> measurement("Oc1ccc(-c2cc(-c3ccoc3)cc(-c3cccc(O)c3)n2)cc1")
19.7
>>> measurement("Oc1ccc(-c2cc(-c3ccsc3)cc(-c3cccc(O)c3)n2)cc1")
44.7
>>> measurement("Oc1ccc(-c2cc(-c3cccs3)cc(-c3ccccc3O)n2)cc1")
30.2
>>> measurement("Oc1ccc(-c2cc(-c3ccco3)cc(-c3ccccc3O)n2)cc1")
13.6
>>> measurement("Oc1cccc(-c2cc(-c3ccco3)cc(-c3ccccc3O)n2)c1")
21.5

1 = Oc1ccc(-c2cc(-c3cccs3)cc(-c3cccc(O)c3)n2)cc1
2 = Oc1ccc(-c2cc(-c3ccco3)cc(-c3ccc(O)cc3)n2)cc1
3 = Oc1cccc(-c2cc(-c3cccs3)cc(-c3ccccc3O)n2)c1
4 = Oc1cccc(-c2cc(-c3ccccn3)cc(-c3cccc(O)c3)n2)c1
q: # rank by inhibition, ascending (min first) List the labels in the requested order.
a: 4, 3, 1, 2
(4: 4.3%, 3: 12.1%, 1: 21.5%, 2: 48.4%)

---

Target: DNA topoisomerase 1 (Homo sapiens) (UniProt P11387)
Assay: Inhibition of recombinant human DNA topoisomerase-1 assessed as relaxation of supercoiled DNA pBR322 at 20 uM after 30 mins by agarose gel electrophoresis relative to control
reportedMetric: inhibition (%)

Worked examples, 2 compounds total:
>>> measurement("Oc1cccc(-c2cc(-c3ccco3)cc(-c3ccccc3O)n2)c1")
0
>>> measurement("Oc1ccc(-c2cc(-c3ccco3)cc(-c3ccc(O)cc3)n2)cc1")
0

1 = Oc1ccc(-c2cc(-c3cccnc3)cc(-c3cccc(O)c3)n2)cc1
2 = Oc1cccc(-c2cc(-c3cccs3)cc(-c3ccccc3O)n2)c1
3 = Oc1ccc(-c2cc(-c3ccco3)cc(-c3ccccc3O)n2)cc1
q: Please rank these compounds by inhibition in descending order. # respond with the labels, arranged in the requested order
a: 1, 2, 3

---

Target: DNA topoisomerase 2-alpha (Homo sapiens)
Experiment: Inhibition of recombinant human DNA topoisomerase-2alpha using supercoiled pBR322 plasmid DNA as substrate at 100 uM after 30 mins by agarose gel electrophoresis relative to control
reportedMetric: inhibition (%)

Example compounds with recorded inhibition:
>>> measurement("Oc1ccc(-c2cc(-c3cccnc3)cc(-c3ccc(O)cc3)n2)cc1")
65.8
>>> measurement("Oc1cccc(-c2cc(-c3ccccn3)cc(-c3ccccc3O)n2)c1")
62.5
>>> measurement("Oc1ccc(-c2cc(-c3ccco3)cc(-c3cccc(O)c3)n2)cc1")
92.8

A = Oc1cccc(-c2cc(-c3ccoc3)cc(-c3ccccc3O)n2)c1
B = Oc1ccc(-c2cc(-c3ccsc3)cc(-c3cccc(O)c3)n2)cc1
q: Which of the two gives a bigger number for inhibition: A or B ? // caller expects the label of the chosen entry
a: B

---

Biological target: UniProt P11387
Sequence (whole entry): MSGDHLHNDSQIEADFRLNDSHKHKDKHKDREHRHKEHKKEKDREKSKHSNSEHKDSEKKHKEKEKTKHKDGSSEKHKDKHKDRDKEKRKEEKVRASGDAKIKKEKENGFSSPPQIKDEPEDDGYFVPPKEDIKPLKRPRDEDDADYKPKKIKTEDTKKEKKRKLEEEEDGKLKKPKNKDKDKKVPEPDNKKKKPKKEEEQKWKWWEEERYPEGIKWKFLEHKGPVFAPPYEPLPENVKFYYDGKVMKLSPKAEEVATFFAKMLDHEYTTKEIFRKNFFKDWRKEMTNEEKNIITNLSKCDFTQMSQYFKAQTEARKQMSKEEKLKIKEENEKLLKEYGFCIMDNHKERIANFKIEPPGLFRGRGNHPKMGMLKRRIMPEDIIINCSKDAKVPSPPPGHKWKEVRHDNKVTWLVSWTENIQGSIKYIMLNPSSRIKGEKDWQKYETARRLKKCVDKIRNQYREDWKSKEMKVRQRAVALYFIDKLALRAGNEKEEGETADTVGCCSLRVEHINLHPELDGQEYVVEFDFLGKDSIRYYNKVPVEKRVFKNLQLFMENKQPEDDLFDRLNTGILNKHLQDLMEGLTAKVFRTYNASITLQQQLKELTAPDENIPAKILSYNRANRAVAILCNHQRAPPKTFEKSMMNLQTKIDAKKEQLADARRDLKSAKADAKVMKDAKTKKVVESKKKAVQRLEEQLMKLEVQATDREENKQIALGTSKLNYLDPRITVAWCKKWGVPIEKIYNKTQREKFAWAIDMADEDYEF
Assay: Inhibition of recombinant human DNA topoisomerase-1 assessed as relaxation of supercoiled DNA pBR322 at 100 uM after 30 mins by agarose gel electrophoresis relative to control
reportedMetric: inhibition (%)

>>> measurement("Oc1ccc(-c2cc(-c3cccnc3)cc(-c3ccc(O)cc3)n2)cc1")
8.7
>>> measurement("Oc1ccc(-c2cc(-c3ccsc3)cc(-c3ccc(O)cc3)n2)cc1")
61.7
>>> measurement("Oc1ccccc1-c1cc(-c2cccnc2)cc(-c2ccccc2O)n1")
66.4
>>> measurement("Oc1ccc(-c2cc(-c3ccco3)cc(-c3ccc(O)cc3)n2)cc1")
100
>>> measurement("Oc1ccccc1-c1cc(-c2ccccn2)cc(-c2ccccc2O)n1")
0.8

I = Oc1cccc(-c2cc(-c3cccs3)cc(-c3ccccc3O)n2)c1
II = Oc1cccc(-c2cc(-c3ccoc3)cc(-c3cccc(O)c3)n2)c1
III = Oc1cccc(-c2cc(-c3cccnc3)cc(-c3cccc(O)c3)n2)c1
IV = Oc1ccccc1-c1cc(-c2ccoc2)cc(-c2ccccc2O)n1
q: Sort low-to-high on inhibition, please. Answer by writing out the labels in the requested order.
a: IV, III, II, I
(IV: 1%, III: 2.1%, II: 44.2%, I: 83.2%)

1 = Oc1cccc(-c2cc(-c3ccco3)cc(-c3ccccc3O)n2)c1
2 = Oc1ccc(-c2cc(-c3ccccn3)cc(-c3ccccc3O)n2)cc1
q: Select one. Lower inhibition: 1 or 2 Bench note: the answer is the label of the chosen record.
a: 2
(2: 0.2%, 1: 90.1%)

I = Oc1ccccc1-c1cc(-c2cccs2)cc(-c2ccccc2O)n1
II = Oc1ccc(-c2cc(-c3ccccn3)cc(-c3ccc(O)cc3)n2)cc1
q: Could you tell me which of these two has the smaller inhibition figure? First: I Second: II Bench note: the answer is the label of the chosen record.
a: II

A = Oc1ccccc1-c1cc(-c2ccco2)cc(-c2ccccc2O)n1
B = Oc1ccc(-c2cc(-c3ccsc3)cc(-c3ccccc3O)n2)cc1
q: Consider A and B . Which of these has its inhibition at a higher number? Provide the label of your selected option as the answer.
a: A

P = Oc1cccc(-c2cc(-c3ccco3)cc(-c3cccc(O)c3)n2)c1
Q = Oc1cccc(-c2cc(-c3ccccn3)cc(-c3cccc(O)c3)n2)c1
q: Kindly compare P with Q and tell me which has the lower inhibition figure. Write the label of whichever entry you select.
a: Q

I = Oc1cccc(-c2cc(-c3cccs3)cc(-c3cccc(O)c3)n2)c1
II = Oc1ccc(-c2cc(-c3cccnc3)cc(-c3cccc(O)c3)n2)cc1
q: Of the pair I and II , name the member with the lesser recorded inhibition. Reply with the label of the item you choose.
a: II
